# maps each entry to its melting point

Previously resolved entries follow.
Query: Which value of melting point has been reported for CCn1c(=O)n(CCCCC(C)(O)CC)c(=O)c2[nH]cnc21 (stereo not drawn) [Example 11] in the records?
Reply: 165 to 166 °C

Query: Which value of melting point has been reported for Cn1c(=O)n(CCCCC(C)(O)CO)c(=O)c2[nH]cnc21 (stereo not drawn) [Example 8] in the records?
Reply: 181 to 182 °C

Query: Which value of melting point has been reported for CCn1c(=O)n(CCCCCC(C)(C)O)c(=O)c2[nH]cnc21 [Example 13] in the records?
Reply: 163 to 165 °C

Continuing:
Query: Which value of melting point has been reported for CCC(C)(O)CCCCn1c(=O)c2[nH]cnc2n(C)c1=O (stereo not drawn) [Example 9] in the records?
Reply: 169 to 170 °C

Query: Which value of melting point has been reported for Cn1c(=O)n(CC(C)(C)O)c(=O)c2[nH]cnc21 [Example 1] in the records?
Reply: 215 to 217 °C

Query: Which value of melting point has been reported for Cn1c(=O)n(CCCCCC(C)(C)O)c(=O)c2[nH]cnc21 [Example 12] in the records?
Reply: 166 to 167 °C

Query: Which value of melting point has been reported for Cn1c(=O)n(CCCCC(C)(C)O)c(=O)c2[nH]cnc21 [Example 7] in the records?
Reply: 192 to 193 °C

Query: Which value of melting point has been reported for Cn1c(=O)n(CCCC(C)(C)O)c(=O)c2[nH]cnc21 [Example 5] in the records?
Reply: 188 to 189 °C

Query: Which value of melting point has been reported for CCn1c(=O)n(CCCC(C)(C)O)c(=O)c2[nH]cnc21 [Example 6] in the records?
Reply: 214 to 216 °C

Query: Which value of melting point has been reported for CCn1c(=O)n(CCC(C)(C)O)c(=O)c2[nH]cnc21 [Example 4] in the records?
Reply: 241 to 243 °C

Query: Which value of melting point has been reported for CCn1c(=O)n(CCCCC(C)(C)O)c(=O)c2[nH]cnc21 [Example 10] in the records?
Reply: 180 to 182 °C

Query: Which value of melting point has been reported for Cn1c(=O)n(CCC(C)(C)O)c(=O)c2[nH]cnc21 [Example 3] in the records?
Reply: 203 to 205 °C
